test system: 422866-222-R5-J1-PDC spheroids with HUVEC/MSC, viability; test: Anticancer human tumor 422866-222-R5-J1-PDC patient-derived pancreatic adenocarcinoma cell line growth inhibition [GQUAD]; settings: second compound 0.0316 µM; first compound 3.16 µM; hits give low values
Measured Endpoint: viability, T/C

422866-222-R5-J1-PDC spheroids with HUVEC/MSC, viability / viability, T/C / CC(C)n1c(=O)n(C)c2cnc3cc(F)c(-c4ccc(OCCCN5CCCCC5)nc4)cc3c21 + CN(C)c1ccc(Nc2c3ccc(NC(=O)CCN4CCCC4)cc3nc3cc(NC(=O)CCN4CCCC4)ccc23)cc1 : value?
103%

422866-222-R5-J1-PDC spheroids with HUVEC/MSC, viability / viability, T/C / CCCS(=O)(=O)Nc1ccc(F)c(C(=O)c2c[nH]c3ncc(-c4ccc(Cl)cc4)cc23)c1F + CN(C)c1ccc(Nc2c3ccc(NC(=O)CCN4CCCC4)cc3nc3cc(NC(=O)CCN4CCCC4)ccc23)cc1 : value?
164%

422866-222-R5-J1-PDC spheroids with HUVEC/MSC, viability / viability, T/C / COc1cccc2c1C(=O)c1c(O)c3c(c(O)c1C2=O)CC(O)(C(=O)CO)CC3OC1CC(N)C(O)C(C)O1 (stereo not given) + Cc1cnc(CNC(=O)c2c(=O)c3ccc(N4CCCN(C)CC4)nc3n3c2sc2ccccc23)cn1 : value?
33.9%

422866-222-R5-J1-PDC spheroids with HUVEC/MSC, viability / viability, T/C / COc1cccc2c1C(=O)c1c(O)c3c(c(O)c1C2=O)CC(O)(C(=O)CO)CC3OC1CC(N)C(O)C(C)O1 (stereo not given) + Cc1[nH]c2ccc(F)cc2c1-c1nc2c3cccnc3c3ncccc3c2[nH]1 : value?
30%

422866-222-R5-J1-PDC spheroids with HUVEC/MSC, viability / viability, T/C / C#Cc1c(F)ccc2cc(O)cc(-c3ncc4c(N5CC6CCC(C5)N6)nc(OCC56CCCN5CC(F)C6)nc4c3F)c12 (stereo not given) + Cc1[nH]c2ccc(F)cc2c1-c1nc2c3cccnc3c3ncccc3c2[nH]1 : value?
30.2%

---

system: 422866-222-R5-J1-PDC spheroids with HUVEC/MSC, viability; experiment: Anticancer human tumor 422866-222-R5-J1-PDC cell line growth inhibition [GQUAD]; settings: second compound 0.316 µM; first compound 1 µM; hits give low values;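 also: spheroids exposed to compounds for seven days before reading; percent viability relative to DMSO vehicle control taken as 100%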
Assign viability, T/C to each entry below.
Response body: numeric value in %, unit text excluded.

Could you tell me which viability, T/C is on file for CC(=O)O[C@H]1C(=O)[C@@]2(C)[C@H]([C@H](OC(=O)c3ccccc3)[C@]3(O)C[C@H](OC(=O)[C@H](O)[C@@H](NC(=O)c4ccccc4)c4ccccc4)C(C)=C1C3(C)C)[C@]1(OC(C)=O)CO[C@@H]1C[C@@H]2O + Cc1cnc(CNC(=O)c2c(=O)c3ccc(N4CCCN(C)CC4)nc3n3c2sc2ccccc23)cn1 ?
107

Could you tell me which viability, T/C is on file for C=CC(=O)N1CCN(c2nc(=O)n(-c3c(C)ccnc3C(C)C)c3nc(-c4c(O)cccc4F)c(F)cc23)C(C)C1 (stereo not given) + Cc1[nH]c2ccc(F)cc2c1-c1nc2c3cccnc3c3ncccc3c2[nH]1 ?
24.1

Could you tell me which viability, T/C is on file for C=CCn1c(=O)c2cnc(Nc3ccc(N4CCN(C)CC4)cc3)nc2n1-c1cccc(C(C)(C)O)n1 + CN(C)c1ccc(Nc2c3ccc(NC(=O)CCN4CCCC4)cc3nc3cc(NC(=O)CCN4CCCC4)ccc23)cc1 ?
38.4

Could you tell me which viability, T/C is on file for O=c1[nH]cc(F)c(=O)[nH]1 + Cc1[nH]c2ccc(F)cc2c1-c1nc2c3cccnc3c3ncccc3c2[nH]1 ?
73.2

Could you tell me which viability, T/C is on file for Cc1cccc(N(C)C(=O)C2C(O)CCN2c2nc(C)cc(C(F)(F)F)c2C#N)c1 (stereo not given) + Cc1[nH]c2ccc(F)cc2c1-c1nc2c3cccnc3c3ncccc3c2[nH]1 ?
98.3

---

test system: 422866-222-R5-J1-PDC spheroids with HUVEC/MSC, viability; assay: Anticancer human tumor 422866-222-R5-J1-PDC cell line growth inhibition [GQUAD]; details: second compound 0.316 µM; first compound 1 µM; hits give low values;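 also: spheroids exposed to compounds for seven days before reading; percent viability relative to DMSO vehicle control taken as 100%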
Assign viability, T/C to each entry below.

Could you tell me which viability, T/C is on file for CC(C)(O)C1CCC(Nc2ccc3ncc(-c4cccc(C(F)(F)F)c4)n3n2)CC1 (stereo not given) + Cc1cnc(CNC(=O)c2c(=O)c3ccc(N4CCCN(C)CC4)nc3n3c2sc2ccccc23)cn1 ?
78.6%

Could you tell me which viability, T/C is on file for COc1ncnc(C2CC2)c1-c1ncc2cnn(Cc3ccc(-c4nc(C(F)(F)F)cn4C(C)C)cc3)c2n1 + CN(C)c1ccc(Nc2c3ccc(NC(=O)CCN4CCCC4)cc3nc3cc(NC(=O)CCN4CCCC4)ccc23)cc1 ?
94.3%

Could you tell me which viability, T/C is on file for O=C(c1cc(Cc2n[nH]c(=O)c3ccccc23)ccc1F)N1CCN(C(=O)C2CC2)CC1 + Cc1[nH]c2ccc(F)cc2c1-c1nc2c3cccnc3c3ncccc3c2[nH]1 ?
72.8%

Could you tell me which viability, T/C is on file for CC(C)(O)C1CCC(Nc2ccc3ncc(-c4cccc(C(F)(F)F)c4)n3n2)CC1 (stereo not given) + CN(C)c1ccc(Nc2c3ccc(NC(=O)CCN4CCCC4)cc3nc3cc(NC(=O)CCN4CCCC4)ccc23)cc1 ?
58.5%

Could you tell me which viability, T/C is on file for Cc1cccc(N(C)C(=O)C2C(O)CCN2c2nc(C)cc(C(F)(F)F)c2C#N)c1 (stereo not given) + CN(C)c1ccc(Nc2c3ccc(NC(=O)CCN4CCCC4)cc3nc3cc(NC(=O)CCN4CCCC4)ccc23)cc1 ?
86.2%

Could you tell me which viability, T/C is on file for CC(=O)O[C@H]1C(=O)[C@@]2(C)[C@H]([C@H](OC(=O)c3ccccc3)[C@]3(O)C[C@H](OC(=O)[C@H](O)[C@@H](NC(=O)c4ccccc4)c4ccccc4)C(C)=C1C3(C)C)[C@]1(OC(C)=O)CO[C@@H]1C[C@@H]2O + CN(C)c1ccc(Nc2c3ccc(NC(=O)CCN4CCCC4)cc3nc3cc(NC(=O)CCN4CCCC4)ccc23)cc1 ?
72.4%

Could you tell me which viability, T/C is on file for O=C(c1cc(Cc2n[nH]c(=O)c3ccccc23)ccc1F)N1CCN(C(=O)C2CC2)CC1 + CN(C)c1ccc(Nc2c3ccc(NC(=O)CCN4CCCC4)cc3nc3cc(NC(=O)CCN4CCCC4)ccc23)cc1 ?
83.3%

Could you tell me which viability, T/C is on file for C=CCn1c(=O)c2cnc(Nc3ccc(N4CCN(C)CC4)cc3)nc2n1-c1cccc(C(C)(C)O)n1 + Cc1[nH]c2ccc(F)cc2c1-c1nc2c3cccnc3c3ncccc3c2[nH]1 ?
130%

Could you tell me which viability, T/C is on file for COc1ccc([C@@H](O)c2cc(-c3ncnc4cc(N5CCOCC5)ccc34)c(F)cc2Cl)nn1 + CN(C)c1ccc(Nc2c3ccc(NC(=O)CCN4CCCC4)cc3nc3cc(NC(=O)CCN4CCCC4)ccc23)cc1 ?
67.1%

Could you tell me which viability, T/C is on file for COc1cccc2c1C(=O)c1c(O)c3c(c(O)c1C2=O)CC(O)(C(=O)CO)CC3OC1CC(N)C(O)C(C)O1 (stereo not given) + Cc1cnc(CNC(=O)c2c(=O)c3ccc(N4CCCN(C)CC4)nc3n3c2sc2ccccc23)cn1 ?
51.5%

---

test system: 422866-222-R5-J1-PDC spheroids with HUVEC/MSC, viability; assay: Anticancer human tumor 422866-222-R5-J1-PDC cell line growth inhibition [GQUAD]; conditions: second compound 3.16 µM; first compound 1 µM; hits give low values;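 also: spheroids exposed to compounds for seven days before reading; percent viability relative to DMSO vehicle control taken as 100%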
Measured Endpoint: viability, T/C (%)
Response body: numeric value in %, unit text excluded.

Could you tell me which viability, T/C is on file for COc1ncnc(C2CC2)c1-c1ncc2cnn(Cc3ccc(-c4nc(C(F)(F)F)cn4C(C)C)cc3)c2n1 + CN(C)c1ccc(Nc2c3ccc(NC(=O)CCN4CCCC4)cc3nc3cc(NC(=O)CCN4CCCC4)ccc23)cc1 ?
92.9

Could you tell me which viability, T/C is on file for CC(C)n1c(=O)n(C)c2cnc3cc(F)c(-c4ccc(OCCCN5CCCCC5)nc4)cc3c21 + CN(C)c1ccc(Nc2c3ccc(NC(=O)CCN4CCCC4)cc3nc3cc(NC(=O)CCN4CCCC4)ccc23)cc1 ?
88.9

Could you tell me which viability, T/C is on file for CC(C)n1c(=O)n(C)c2cnc3cc(F)c(-c4ccc(OCCCN5CCCCC5)nc4)cc3c21 + Cc1cnc(CNC(=O)c2c(=O)c3ccc(N4CCCN(C)CC4)nc3n3c2sc2ccccc23)cn1 ?
94.2

Could you tell me which viability, T/C is on file for O=C(NO)c1cnc(N2CCN(S(=O)(=O)c3ccc4ccccc4c3)CC2)nc1 + Cc1[nH]c2ccc(F)cc2c1-c1nc2c3cccnc3c3ncccc3c2[nH]1 ?
63.3

Could you tell me which viability, T/C is on file for CC1COCCN1c1cc(C2(O)CC3CCC(C2)O3)c2cnn(-c3ccn[nH]3)c2n1 (stereo not given) + CN(C)c1ccc(Nc2c3ccc(NC(=O)CCN4CCCC4)cc3nc3cc(NC(=O)CCN4CCCC4)ccc23)cc1 ?
87.3
